- testTarget: HLA-A*26:01
- testDetails: IEDB peptide-MHC binding, purified MHC/competitive/fluorescence; filed as Kd, often an IC50 or EC50 that approximates it; bounds were set here for any values at or beyond the usual limits of such assays
- conditions: source organism: Vibrio cholerae 2740-80
Recorded Kd values for a group of sequences are listed next.

sequenceCode | readoutValue
KQLPPLAAW | ≥ 20 µM

For the next question, use this sequence.
Report measured Kd; entry is IFIRTIYYH
≥ 20 µM

====

- testTarget: HLA-A*02:01
- testDetails: IEDB peptide-MHC binding, purified MHC/competitive/radioactivity; bounds were set here for any values at or beyond the usual limits of such assays
- conditions: source organism: Homo sapiens
experimentalEndpoint: IC50 (nM)
Numbers only here, please. The scale is nM.

sequenceCode | IC50 (nM)
TVILGVLLL | 847

# context switch: different sequence, same IC50
Input VLPSPACQLV , output reported IC50.
500
